// provenance: PubChem BioAssay (NCATS)

System: NIH3T3
ASSAY_INFO: Cytotoxic Profiling of Annotated Libraries Using Quantitative High-Throughput Screening (AID 1296008); note: nearly all actives have a fitted effect of over 60% in size
CONDITION_PARAMETERS: Five cell lines viability, CellTiter-Glo ATP luminescence, 48-72 h
Inconclusive results are not listed. Calls of active or inactive are those of the source. Calls come from the whole dose curve; as a rule, active = well fitted inhibition curve with a large enough effect; inconclusive = small, poorly fitted or top-dose-only effect; inactive = flat fitted curve, though single readings scatter.
Please state which outcome applies, choosing from Y (active), N (inactive)

MOLECULE	ASSIGNED_CATEGORY
CC1COc2c(N3CCN(C)CC3)c(F)cc3c(=O)c(C(=O)O)cn1c23 (stereo not given)	N
Cn1ccc2cc3c(cc21)CCN3C(=O)Nc1cccnc1	N
CN(C)CCOC(c1ccccc1)c1ccccc1	N
COc1cc2nc(N3CCN(C(=O)C4COc5ccccc5O4)CC3)nc(N)c2cc1OC (stereo not given)	N
CN1CCN(C2=Nc3cc(Cl)ccc3Nc3ccccc32)CC1	N
CC(C)Cc1ccc(C(C)C(=O)O)cc1 (stereo not given)	N
Cc1ccc(C(=O)Nc2ccc(S(=O)(=O)O)c3cc(S(=O)(=O)O)cc(S(=O)(=O)O)c23)cc1NC(=O)c1cccc(NC(=O)Nc2cccc(C(=O)Nc3cc(C(=O)Nc4ccc(S(=O)(=O)O)c5cc(S(=O)(=O)O)cc(S(=O)(=O)O)c45)ccc3C)c2)c1	N
COC(=O)Nc1nc2ccc(C(=O)c3cccs3)cc2[nH]1	Y
NCCS(=O)(=O)O	N

Consider the record given below.
-- ask How was CCN1CCCC1CNC(=O)c1cc(S(=O)(=O)CC)c(N)cc1OC (stereo not given) classified in this test?
-- reply N

###

Tested on: PC49
ASSAY_INFO: qHTS profiling for inhibitors of Plasmodium falciparum proliferation (AID 504749); note: nearly all actives have a fitted effect of over 60% in size
CONDITION_PARAMETERS: P. falciparum in erythrocytes, SYBR Green DNA, 72 h; series mostly up to 28.7 µM
Results filed as inconclusive are left out. Active and inactive are the calls of the source. The call rests on the fitted dose curve; in most records, active means well fitted inhibition curve with a large enough effect; inconclusive means small, poorly fitted or top-dose-only effect; inactive means flat fitted curve, though single readings scatter.
MEASURE: outcome

O=C1c2c(O)ccc(O)c2C(=O)c2c(NCCNCCO)ccc(NCCNCCO)c21 inactive
Cn1c(=O)c2c(ncn2C)n(C)c1=O inactive
NS(=O)(=O)c1cc2c(cc1Cl)NCNS2(=O)=O inactive

###

ASSAY_INFO: qHTS profiling of the MIPE4 collection as inhibitors of Plasmodium falciparum (DD2) proliferation (Rep 2) (AID 743346)
CONDITION_PARAMETERS: P. falciparum Dd2 in erythrocytes, SYBR Green DNA, 72 h; at 28.5 µM (top of the series) unless noted
# class assignment by measured parasite growth, % of control (lower = inhibition): bin 0 = under 40%, bin 1 = from 40% up to 90%, bin 2 = 90% and over

Known results for compounds:
COMPOUND	ASSIGNED_CATEGORY
CS(=O)(=O)Nc1ccc([N+](=O)[O-])cc1Oc1ccccc1	bin 1
Clc1ccc2nsnc2c1NC1=NCCN1	bin 1
CC(CCc1ccc(O)cc1)NCCc1ccc(O)c(O)c1 (centres undefined)	bin 1
Nc1ccn([C@H]2CC[C@@H](CO)O2)c(=O)n1	bin 1
CN(C)CCCN1c2ccccc2CCc2ccc(Cl)cc21	bin 0

-- ask Assign a bin to CC(COc1ccccc1)N(CCCl)Cc1ccccc1 (centres undefined)
-- reply bin 0

-- ask Band assignment needed for `CN1C(C(=O)Nc2ccccn2)=C(O)c2ccccc2S1(=O)=O` please.
-- reply bin 2

-- ask Note: place this compound into its band. Item: COc1cc2nc(N3CCN(C(=O)C4COc5ccccc5O4)CC3)nc(N)c2cc1OC (centres undefined)
-- reply bin 0

-- ask Please indicate the class for `COc1ccc2c(c1)c(CC(=O)O)c(C)n2C(=O)c1ccc(Cl)cc1` based on its parasite growth, % of control (lower = inhibition).
-- reply bin 2

-- ask // return the class label for `O=c1c(O)c(-c2ccc(O)c(O)c2)oc2cc(O)cc(O)c12`
-- reply bin 0

-- ask Into which category would you place `O=C(c1ccc(OCCN2CCCCC2)cc1)c1c(-c2ccc(O)cc2)sc2cc(O)ccc12` ?
-- reply bin 0

-- ask Dear colleague, I would appreciate it if you could identify the bin for `CCCCc1oc2ccccc2c1C(=O)c1cc(I)c(OCCN(CC)CC)c(I)c1` and reply at your convenience.
-- reply bin 0

-- ask Tag the class for COc1ccccc1OCC(O)CN1CCN(CC(=O)Nc2c(C)cccc2C)CC1 (centres undefined)
-- reply bin 2

###

ASSAY_INFO: Drug repurposing screens with cells derived from glioblastoma tumor samples (AID 1345199); note: potency is the fitted concentration of half-maximal effect; nearly all actives have a fitted effect of over 40% in size
CONDITION_PARAMETERS: GBM patient neurospheres viability, ATP luminescence, 48 h; tumour line B
Protocol: CD133+ cells were isolated from GBM patient biopsies and cultured as neurospheres. Neurospheres from four patients were used to screen the NCATS pharmaceutical collection (NPC) library of approved drugs and bioactive compounds. […] The neurospheres were incubated with drugs for 48 hours in 1536-well format, then assayed with an ATP content cell viability assay. […]
Results filed as inconclusive are left out. Active and inactive are the calls of the source. Calls follow the shape of the dose curve; as a rule, active = well fitted inhibition curve with a large enough effect; inconclusive = small, poorly fitted or top-dose-only effect; inactive = flat fitted curve, though single readings scatter.
Parameter Potency: see the listing below.

MOLECULE	RECORDED_MEASUREMENT
CCCCc1oc2ccccc2c1C(=O)c1cc(I)c(OCCN(CC)CC)c(I)c1	25.1 µM (active)
CNCCCC12CCC(c3ccccc31)c1ccccc12	17.8 µM (active)
CC(CCc1ccc(O)cc1)NCCc1ccc(O)c(O)c1 (centres undefined)	31.6 µM (active)

-- ask Give the reported Potency for this molecule. `CN(C)CCCN1c2ccccc2CCc2ccc(Cl)cc21`
-- reply 20 µM (active)

###

TARGET_OF_ASSAY: Calcium and integrin-binding protein 1 (Homo sapiens) (UniProt Q99828)
Sequence (Q99828 whole entry, looked up): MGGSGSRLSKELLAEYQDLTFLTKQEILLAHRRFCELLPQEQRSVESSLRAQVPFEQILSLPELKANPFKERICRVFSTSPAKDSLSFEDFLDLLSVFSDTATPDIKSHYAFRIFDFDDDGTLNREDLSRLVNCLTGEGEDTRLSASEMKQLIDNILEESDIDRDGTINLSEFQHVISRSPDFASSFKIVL
ASSAY_INFO: Validation qHTS for Identification of Calcium Integrin Binding protein 1 (CIB1) Competitor (AID 1508618); note: % is set by controls: 0 for no effect and ±100 for the full control effect
CONDITION_PARAMETERS: CIB1-GST / FITC-alphaIIb peptide fluorescence polarization; series mostly up to 114 µM
Results filed as inconclusive are left out. Active and inactive are the calls of the source. Calls come from the whole dose curve; as a rule, active = well fitted curve in the direction sought with a large enough effect; inconclusive = small, poorly fitted or top-dose-only effect, or another doubt; inactive = no such curve, though single readings can be large or run the other way.
MEASURE: outcome

Worked set:
MOLECULE	outcome
COc1cc2nc(N3CCN(C(=O)c4ccco4)CC3)nc(N)c2cc1OC	inactive
Clc1ccc(C(c2ccccc2Cl)C(Cl)Cl)cc1 (stereo unspecified)	inactive
Nc1ccn([C@H]2CC[C@@H](CO)O2)c(=O)n1	inactive
CCCNCC(O)COc1ccccc1C(=O)CCc1ccccc1 (stereo unspecified)	inactive
CC(C)C(=O)Nc1ccc([N+](=O)[O-])c(C(F)(F)F)c1	inactive

-- ask Jot down outcome (Calcium and integrin-binding protein 1 (Homo sapiens) (UniProt Q99828)) of `O=c1c(-c2ccc(O)cc2)coc2cc(O)cc(O)c12` .
-- reply inactive

###

Tested on: NIH3T3
ASSAY_INFO: Cytotoxic Profiling of Annotated Libraries Using Quantitative High-Throughput Screening (AID 1296008); note: nearly all actives have a fitted effect of over 60% in size; for max response: % is set by controls: 0 for no effect and ±100 for the full control effect
CONDITION_PARAMETERS: Five cell lines viability, CellTiter-Glo ATP luminescence, 48-72 h; stronger effect = lower value
Inconclusive results are not listed.
This listing pairs molecules with measured max response.
API: value field is a number in %; no unit string.

Example entries begin here.
MOLECULE	max response (%)
CN1CCC(=C2c3ccccc3CC(=O)c3sccc32)CC1	-5.39
Cc1cc(C(C)(C)C)cc(C)c1CC1=NCCN1	-2.36
CCN1CCCC1CNC(=O)c1cc(S(=O)(=O)CC)c(N)cc1OC (stereo not drawn)	4.99
COc1ccccc1OCC(O)CN1CCN(CC(=O)Nc2c(C)cccc2C)CC1 (stereo not drawn)	-5.09
CC(=O)OCC(CCn1cnc2cnc(N)nc21)COC(C)=O	3.32

-- ask Using the record for `NC12CC3CC(CC(C3)C1)C2` , state its measured max response.
-- reply 1.39

-- ask Provide only the value of recorded max response for `CC(C)C(=O)Nc1ccc([N+](=O)[O-])c(C(F)(F)F)c1`
-- reply -15.1

###

System: CP268
ASSAY_INFO: qHTS profiling for inhibitors of Plasmodium falciparum proliferation (AID 504749); note: nearly all actives have a fitted effect of over 60% in size
CONDITION_PARAMETERS: P. falciparum in erythrocytes, SYBR Green DNA, 72 h; series mostly up to 28.7 µM
Results filed as inconclusive are left out. The source made the active and inactive calls. The call rests on the fitted dose curve; in most records, active means well fitted inhibition curve with a large enough effect; inconclusive means small, poorly fitted or top-dose-only effect; inactive means flat fitted curve, though single readings scatter.
In this exercise, the only acceptable responses are active, inactive

COMPOUND	ASSIGNED_CATEGORY
CC#C[C@]1(O)CC[C@H]2[C@@H]3CCC4=CC(=O)CCC4=C3[C@@H](c3ccc(N(C)C)cc3)C[C@@]21C	active
NCCCCCC(=O)O	inactive
CS(=O)(=O)Nc1ccc([N+](=O)[O-])cc1Oc1ccccc1	inactive
Cc1cc(C(C)(C)C)c(O)c(C)c1CC1=NCCN1	inactive
CCCNCC(O)COc1ccccc1C(=O)CCc1ccccc1 (stereo unspecified)	active

Please find the next compound below.
-- ask Each compound tested received a call. Report the one for `COc1ccc2[nH]cc(CCNC(C)=O)c2c1` .
-- reply inactive

###

Tested on: KB-3-1
ASSAY_INFO: Cytotoxic Profiling of Annotated Libraries Using Quantitative High-Throughput Screening (AID 1296008); note: nearly all actives have a fitted effect of over 60% in size
CONDITION_PARAMETERS: Five cell lines viability, CellTiter-Glo ATP luminescence, 48-72 h
Inconclusive results are not listed. Active and inactive are the calls of the source. The call rests on the fitted dose curve; in most records, active means well fitted inhibition curve with a large enough effect; inconclusive means small, poorly fitted or top-dose-only effect; inactive means flat fitted curve, though single readings scatter.
Would you mind answering with one of these outcomes? active, inactive

Sample answers from the record:
COMPOUND	TARGET_OF_ASSAY	ASSIGNED_CATEGORY
CN(C)C(=O)C(CCN1CCC(O)(c2ccc(Cl)cc2)CC1)(c1ccccc1)c1ccccc1	KB-3-1	active
Cc1ccc(-c2cc(C(F)(F)F)nn2-c2ccc(S(N)(=O)=O)cc2)cc1	KB-3-1	inactive
O=C1N(c2ccccc2)c2ccccc2C1(Cc1ccncc1)Cc1ccncc1	KB-3-1	inactive
CC(C)(Oc1ccc(C2CC2(Cl)Cl)cc1)C(=O)O (stereo unspecified)	KB-3-1	inactive
O=C1c2c(O)ccc(O)c2C(=O)c2c(NCCNCCO)ccc(NCCNCCO)c21	KB-3-1	active

-- ask I would be grateful if you could indicate the recorded call for `CN(Cc1cnc2nc(N)nc(N)c2n1)c1ccc(C(=O)N[C@@H](CCC(=O)O)C(=O)O)cc1` .
-- reply active

-- ask Hi team, can someone confirm the assay call for `OCCN1CCN(CCCN2c3ccccc3Sc3ccc(C(F)(F)F)cc32)CC1` ?
-- reply active

-- ask Check the results log: what was the call for `NCCc1cnc[nH]1` ?
-- reply inactive

-- ask Would you mind telling me which call this test gave `CC1(C)O[C@H]2CC(=O)OC[C@]23[C@H]2CC[C@@]4(C)[C@H](c5ccoc5)OC(=O)[C@H]5O[C@]54[C@]2(C)C(=O)C[C@@H]13` ?
-- reply inactive

-- ask Lab log entry: `O=c1c(-c2ccc(O)cc2)coc2cc(O)cc(O)c12` — outcome as called in the assay?
-- reply inactive

-- ask Outcome? `Nc1c2c(nc3ccccc13)CCCC2`
-- reply inactive
